Provide the reported inhibition at 10 µM of each item.
- target.or.system: 5α-Reductase of Rat Liver Microsomes (Rattus norvegicus)
- Sequence (P24008 whole entry): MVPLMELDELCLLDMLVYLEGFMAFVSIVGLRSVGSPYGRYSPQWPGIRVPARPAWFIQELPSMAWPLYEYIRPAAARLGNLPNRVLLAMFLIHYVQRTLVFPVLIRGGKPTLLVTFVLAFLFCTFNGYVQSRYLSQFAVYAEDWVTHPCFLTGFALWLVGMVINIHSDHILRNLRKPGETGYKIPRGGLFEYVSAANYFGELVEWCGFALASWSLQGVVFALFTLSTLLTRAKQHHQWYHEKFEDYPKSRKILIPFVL
- run.description: biochemical
- reported.conditions: read-out: % Inhibition of [^3 H]4-MA binding, Table 2, 10 μM

5α-Reductase of Rat Liver Microsomes (Rattus norvegicus) / inhibition at 10 µM / CC/C=C\C/C=C\C/C=C\CCCCCCCC(=O)O [α-Linolenic acid, α-linolenic acid] : value? 19%

Fill in the recorded inhibition at 10 µM for this compound, with 5α-Reductase of Rat Liver Microsomes (Rattus norvegicus) as test system: CCCCC/C=C/C/C=C/CCCCCCCCCC(=O)O [11,14-trans-Eicosadienoic Acid, trans 11,14-eicosadienoic acid] < 10%

State its inhibition at 10 µM on 5α-Reductase of Rat Liver Microsomes (Rattus norvegicus): CCCCC/C=C\CCCCCCCCCCC(=O)O [12-Octadecenoic Acid, 12-octadecenoic acid] < 10%

What reported inhibition at 10 µM corresponds to CCCCC/C=C/C/C=C/CCCCCCCC(=O)O [Linolelaidic acid] on 5α-Reductase of Rat Liver Microsomes (Rattus norvegicus)? < 10%

Please state recorded inhibition at 10 µM (tested on 5α-Reductase of Rat Liver Microsomes (Rattus norvegicus)) of CCCCC/C=C\C/C=C\CCCCCCCCC(=O)O [10,13-Nonadecadienoic Acid, 10,13-nonadecadienoic acid] < 10%

Request body: readout inhibition at 10 µM, system 5α-Reductase of Rat Liver Microsomes (Rattus norvegicus), query CCCCC/C=C\C/C=C\C/C=C\CCCCCCC(=O)O [8,11,14-cis-Eicosatrienoic Acid, 8,11,14-eicosatrienoic acid] . Return the value. 42%

Please tell me: inhibition at 10 µM of CCCCC/C=C\C/C=C\C/C=C\CCCCC(=O)Cl [γ-Linolenoyl Chloride, γ-linolenoyl chloride] , system 5α-Reductase of Rat Liver Microsomes (Rattus norvegicus)? < 10%
